// provenance: patent US5026733A

Experiment: Acute toxicity by oral administration, mice
Details: mouse, in vivo, po
parameter measured: LD50 (mg/kg)
Could you give me the number in mg/kg? Just the number is fine.

// LD50 lookup, key: COc1cc2c(c(OC)c1OC)-c1c(cc(OC)c(OC)c1OC)C[C@](C)(O)[C@@H](C)C2 [compound of the formula]
900

###

Assay: Acute toxicity by oral administration, rats
Details: rat, in vivo
parameter measured: LD50 (mg/kg)
Could you give me the number in mg/kg? Just the number is fine.

// LD50 lookup, key: `COc1cc2c(c(OC)c1OC)-c1c(cc(OC)c(OC)c1OC)C[C@](C)(O)[C@@H](C)C2`
900
